Provenance of the data: PubChem BioAssay (NCI)

Test system: BT-549 breast
PROCEDURE TEXT: NCI tumour cell line growth inhibition, 48 h; in the data active means GI50 below about 0.43 µM; inactive means the rest
Outcome codes: TRUE = active, FALSE = inactive

INSERT INTO assay_data (compound, answer_label) VALUES
  ('O=[N+]([O-])c1ccc(-c2nc(-c3ccccc3)c(-c3ccccc3)n2-c2ccccc2)cc1', 'FALSE'),
  ('CCOc1ccc([C@@H]2[C@@H](Oc3ccccc3)C(=O)N2c2cc(OC)c(OC)c(OC)c2)cc1', 'TRUE'),
  ('CN1CCCNc2c(c(=O)c2=O)NCCCN(C)CCCNc2c(c(=O)c2=O)NCCCN(C)CCCNc2c(c(=O)c2=O)NCCCN(C)CCCNc2c(c(=O)c2=O)NCCCN(C)CCCNc2c(c(=O)c2=O)NCCCN(C)CCCNc2c(c(=O)c2=O)NCCCN(C)CCCNc2c(c(=O)c2=O)NCCC1', 'FALSE'),
  ('CN(C)c1ccc(C(=C2C=CC(=[N+](C)C)C=C2)c2ccc(N(C)C)cc2)cc1 (tested in a mixture with another compound)', 'TRUE'),
  ('CC(=O)N1CC(Nc2ccc(OC(F)(F)F)cc2)=CC1=O', 'FALSE'),
  ('CCCCCCCC/C=C/CCCCCCCC1=NCC[N+]1(CCO)CCO', 'FALSE'),
  ('CC(=O)Nc1ccc(Sc2ccc([N+](=O)[O-])o2)cc1', 'FALSE');
